test system: SK-MEL-2; assay: Cytotoxicity against human SK-MEL-2 cells after 48 hrs by SRB assay; type: functional, cell-based; details: SK-MEL-2, 48 h
Would you mind telling me the reported IC50 of each entry?

Some solved cases for reference:
molecule	IC50
COc1cc(C[C@@H]2C(=O)OC[C@H]2[C@@H](O[C@@H]2O[C@H](CO)[C@@H](O)[C@H](O)[C@H]2O)c2ccc(O)c(OC)c2)ccc1O	> 10 µM
COc1cc(C[C@@H]2C(=O)OC[C@H]2[C@@H](O)c2cc(OC)c(O[C@@H]3O[C@H](CO)[C@@H](O)[C@H](O)[C@H]3O)c(OC)c2)ccc1O	> 10 µM
COc1cc(C[C@@H]2C(=O)OC[C@H]2[C@@H](O)c2ccc(O[C@@H]3O[C@H](CO)[C@@H](O)[C@H](O)[C@H]3O)c(OC)c2)ccc1O	> 10 µM
COc1cc(C(=O)O)cc(OC)c1O [SYRINGIC ACID]	> 10 µM

Working through the 4 molecules below one at a time, give IC50 for each.
1. COc1cc(C[C@H]2C(=O)OC[C@@H]2C(=O)c2ccc(O[C@@H]3O[C@H](CO)[C@@H](O)[C@H](O)[C@H]3O)c(OC)c2)ccc1O
2. COc1cc([C@H](O)[C@@H]2COC(=O)[C@H]2Cc2ccc(O[C@@H]3O[C@H](CO)[C@@H](O)[C@H](O)[C@H]3O)c(OC)c2)ccc1O
3. COc1cc(/C=C/C(=O)O)ccc1O [FERULATE]
4. O=C(O)c1ccccc1 [BENZOIC ACID]

> 10 µM
> 10 µM
> 10 µM
> 10 µM

So what's the measured IC50 for this one? O=C(O)/C=C/c1ccc(O)cc1 [COUMARIC ACID]
> 10 µM

---

Field: pIC50. Provide a value for each of the compounds that follow.
tested on: BV-2; assay: Antineuroinflammatory activity in mouse BV2 cells assessed as inhibition of LPS-induced nitric oxide production after 24 hrs by Griess assay; assay type: functional, cell-based; details: BV-2, 24 h
pIC50: −log10 of the molar value.

For every listed record, write down its pIC50.
1. COc1cc(C[C@H]2C(=O)OC[C@@H]2C(=O)c2ccc(O[C@@H]3O[C@H](CO)[C@@H](O)[C@H](O)[C@H]3O)c(OC)c2)ccc1O
2. COc1cc(C[C@@H]2C(=O)OC[C@H]2[C@@H](O)c2cc(OC)c(O[C@@H]3O[C@H](CO)[C@@H](O)[C@H](O)[C@H]3O)c(OC)c2)ccc1O
3. CNC(=N)NCCC[C@H](N)C(=O)O [TILARGININE]
4. COc1cc(/C=C/C(=O)O)ccc1O [FERULATE]

["< 4.30", "< 4.30", 4.75, "< 4.30"]
